Molecular target: SARS-CoV-2 Mac1 (Severe acute respiratory syndrome coronavirus 2)
Experiment: biochemical
Conditions: read-out: %inhibition
Where a name gives a salt, the structure may show the parent alone.
Provide the reported inhibition at 100 µM of each item.
Numbers only, in %.

molecule: COC(=O)CCc1ccc(OCC(O)CNC(C)C)cc1 (centres unmarked) [Esmolol HCl]
unit: %
inhibition at 100 µM: 12
//
molecule: C#C[C@]1(O)CC[C@H]2[C@@H]3CCC4=CC(=O)CC[C@@H]4[C@H]3CC[C@@]21CC
unit: %
inhibition at 100 µM: 53.4
//
molecule: Oc1ccc(Cl)c2cccnc12
unit: %
inhibition at 100 µM: 8.06
//
molecule: NC(=O)CN1CC(O)CC1=O (centres unmarked)
unit: %
inhibition at 100 µM: 21.6

# input for lookup
q: Provide measured inhibition at 100 µM value, entry: CC1(C)[C@H](C(=O)O)N2C(=O)C[C@H]2S1(=O)=O [Sulbactam sodium]
a: 16.4

---

Target: SARS-CoV-2 Mac1 (Severe acute respiratory syndrome coronavirus 2, UniProt P0DTD1)
Assay: biochemical
Details: read-out: %inhibition
Structures can show the parent of a compound that is named as a salt.
Returns MET if the recorded inhibition at 100 µM is greater than or equal to 8%, and NOT MET otherwise.

compound: CCN(CC)CCOC(=O)C(c1ccccc1)c1ccccc1 [Adiphenine HCl]
system: SARS-CoV-2 Mac1 (Severe acute respiratory syndrome coronavirus 2, UniProt P0DTD1)
category: NOT MET

compound: COC(=O)C1=C(C)NC(C)=C(C(=O)OCC(C)C)C1c1ccccc1[N+](=O)[O-] (stereo not shown) [Nisoldipine]
system: SARS-CoV-2 Mac1 (Severe acute respiratory syndrome coronavirus 2, UniProt P0DTD1)
category: MET

compound: CC(=O)OCC(CCn1cnc2cnc(N)nc21)COC(C)=O [Famciclovir]
system: SARS-CoV-2 Mac1 (Severe acute respiratory syndrome coronavirus 2, UniProt P0DTD1)
category: NOT MET

q: Identify whether the reported inhibition at 100 µM of the following compound is 8% or greater: COC(=O)N[C@H](C(=O)N[C@@H](Cc1ccccc1)[C@@H](O)CN(Cc1ccc(-c2ccccn2)cc1)NC(=O)[C@@H](NC(=O)OC)C(C)(C)C)C(C)(C)C [Atazanavir Sulfate]
a: NOT MET

q: Has CC(C(=O)O)c1cccc(Oc2ccccc2)c1 (stereo not shown) [Fenoprofen calcium hydrate] a recorded inhibition at 100 µM greater than or equal to 8%?
a: MET

q: Kindly determine if inhibition at 100 µM recorded for C#Cc1cccc(Nc2ncnc3cc(OC)c(OCCCCCCC(=O)NO)cc23)c1 [CUDC-101] is above or exactly 8%.
a: NOT MET

q: Is it the case that CCOC(=O)C1=C(COCCN)NC(C)=C(C(=O)OC)C1c1ccccc1Cl (stereo not shown) [Amlodipine] has inhibition at 100 µM reaching or exceeding 8%?
a: MET

---

Hi there, I'd appreciate the recorded %inhibition for every entry that follows.
Target: UniProt:P0DTD1
Test: biochemical
Details: 100 µM; inhibitor
Where a name gives a salt, the structure may show the parent alone.
Give bare numbers, in %.

# annotated cases, reported %inhibition shown
molecule: Cc1c(-c2ccc(O)cc2)n(Cc2ccc(OCCN3CCCCCC3)cc2)c2ccc(O)cc12 [Bazedoxifene HCl]
%inhibition, %: 0
--
molecule: Clc1ccc(CCC(Cn2ccnc2)Sc2c(Cl)cccc2Cl)cc1 (stereo not shown) [Butoconazole nitrate]
%inhibition, %: 4.358
--
molecule: CN(C)C/C=C/C(=O)Nc1cc2c(Nc3ccc(F)c(Cl)c3)ncnc2cc1O[C@H]1CCOC1 [Afatinib (BIBW2992) Dimaleate]
%inhibition, %: 21

For each of the items listed, what is its %inhibition?
1. Nc1ccn([C@@H]2O[C@H](CO)[C@@H](O)C2(F)F)c(=O)n1 [Gemcitabine HCl]
2. CCc1cc2c(cc1CC)CC(NC[C@H](O)c1ccc(O)c3[nH]c(=O)ccc13)C2 [Indacaterol Maleate]
3. COc1cc2c(cc1OC)C(=O)C(CC1CCN(Cc3ccccc3)CC1)C2 (stereo not shown) [Donepezil HCl]
4. Cc1cn(-c2cc(NC(=O)c3ccc(C)c(Nc4nccc(-c5cccnc5)n4)c3)cc(C(F)(F)F)c2)cn1 [Nilotinib hydrochloride]

a:
1. 0
2. 2.994
3. 0
4. 3.764

---

Target: SARS-CoV-2 Mac1 (Severe acute respiratory syndrome coronavirus 2)
Experiment: biochemical
Details: read-out: %inhibition
metric: inhibition at 100 µM

chem_smiles: C[C@H]1O[C@@H](O[C@H]2[C@@H](O)C[C@H](O[C@H]3[C@@H](O)C[C@H](O[C@H]4CC[C@@]5(C)[C@H](CC[C@@H]6[C@@H]5C[C@@H](O)[C@]5(C)[C@@H](C7=CC(=O)OC7)CC[C@]65O)C4)O[C@@H]3C)O[C@@H]2C)C[C@H](O)[C@@H]1O
metric: inhibition at 100 µM
result: 13.2%
--
chem_smiles: COc1ccc(C(=O)N2CCCC2=O)cc1
metric: inhibition at 100 µM
result: 0%
--
chem_smiles: Cc1cccc(C)c1OCC(=O)N[C@@H](Cc1ccccc1)[C@@H](O)C[C@H](Cc1ccccc1)NC(=O)[C@H](C(C)C)N1CCCNC1=O
metric: inhibition at 100 µM
result: 0%

Now take the following compound into account.
q: Tell me inhibition at 100 µM reported for COc1nc(C)nc(Cl)c1NC1=NCCN1
a: 0%

---

Can you tell me inhibition at 100 µM for the items I'm about to list?
Biological target: SARS-CoV-2 Mac1 (Severe acute respiratory syndrome coronavirus 2, UniProt P0DTD1)
Test: biochemical
Details: read-out: %inhibition
Where a name gives a salt, the structure may show the parent alone.

Reference set, count: 4
compound: CN1CCC(COc2cnc(-c3cccc(Cn4nc(-c5cccc(C#N)c5)ccc4=O)c3)nc2)CC1 [Tepotinib (EMD 1214063)]
system: SARS-CoV-2 Mac1 (Severe acute respiratory syndrome coronavirus 2, UniProt P0DTD1)
inhibition at 100 µM: 0%
//
compound: O=S(=O)(O)c1cc(O)ccc1O [Ethamsylate]
system: SARS-CoV-2 Mac1 (Severe acute respiratory syndrome coronavirus 2, UniProt P0DTD1)
inhibition at 100 µM: 0%
//
compound: O=C1CN2Cc3c(ccc(Cl)c3Cl)N=C2N1 [Anagrelide HCl]
system: SARS-CoV-2 Mac1 (Severe acute respiratory syndrome coronavirus 2, UniProt P0DTD1)
inhibition at 100 µM: 0%
//
compound: O=C1CC2(CCCC2)CC(=O)N1CCCCN1CCN(c2ncccn2)CC1 [Buspirone HCl]
system: SARS-CoV-2 Mac1 (Severe acute respiratory syndrome coronavirus 2, UniProt P0DTD1)
inhibition at 100 µM: 7.05%

Could you now consider this next compound?
q: Provide inhibition at 100 µM value for the following compound: Oc1ccc(/C=C/c2cc(O)cc(O)c2)cc1
a: 0%

---

Target: SARS-CoV-2 Mac1 (Severe acute respiratory syndrome coronavirus 2, UniProt P0DTD1)
Test: biochemical
Settings: read-out: %inhibition
Decide using inhibition at 100 µM: a value greater than or equal to 20% is 1, a smaller one is -1.

q: Could you please find out whether CC(=O)c1ccc(S(=O)(=O)NC(=O)NC2CCCCC2)cc1 [Acetohexamide] has inhibition at 100 µM that meets 20% or exceeds it?
a: -1

---

Target: SARS-CoV-2 Mac1 (Severe acute respiratory syndrome coronavirus 2, UniProt P0DTD1)
Test: biochemical
Conditions: read-out: %inhibition
Where a name gives a salt, the structure may show the parent alone.
Output satisfied for inhibition at 100 µM not less than 10%; output not satisfied otherwise.

q: Decide: inhibition at 100 µM of CC(OC(=O)OC1CCCCC1)OC(=O)C1=C(CSc2nnnn2CCN(C)C)CS[C@@H]2[C@H](NC(=O)Cc3csc(N)n3)C(=O)N12 (stereo partly drawn) [Cefotiam Hexetil Hydrochloride] >= 10%?
a: not satisfied

q: hey, is inhibition at 100 µM for this one >= 10%? CC(c1cc2ccccc2s1)N(O)C(N)=O (stereo not drawn)
a: not satisfied

q: Check if inhibition at 100 µM >= 10% (inclusive). Item: COc1ccc(Cl)cc1C(=O)NCCc1ccc(S(=O)(=O)NC(=O)NC2CCCCC2)cc1 [Glyburide (Glibenclamide)]
a: not satisfied

q: Given the entry Cn1ncc(Cl)c1-c1cc(C(=O)N[C@H](CN)Cc2ccc(F)c(F)c2)oc1Cl , answer whether its inhibition at 100 µM meets or surpasses 10%.
a: not satisfied

q: Reported inhibition at 100 µM at or above 10%? CCCC(=O)Nc1ncnc2c1ncn2[C@@H]1O[C@@H]2COP(=O)(O)O[C@H]2[C@H]1OC(=O)CCC
a: not satisfied

q: Decide: inhibition at 100 µM of Cc1ccc(-n2nc(C(C)(C)C)cc2NC(=O)Nc2ccc(OCCN3CCOCC3)c3ccccc23)cc1 >= 10%?
a: not satisfied

---

Would you mind telling me the reported %inhibition of each entry?
Biological target: SARS-CoV-2 Mac1 (Severe acute respiratory syndrome coronavirus 2)
Test: biochemical
Conditions: 100 µM; inhibitor
Where a name gives a salt, the structure may show the parent alone.
Answers are plain numbers, in %.

// solved cases for %inhibition follow
compound: NC(=O)c1cccc2cn(-c3ccc([C@@H]4CCCNC4)cc3)nc12 [Niraparib (MK-4827)]
system: SARS-CoV-2 Mac1 (Severe acute respiratory syndrome coronavirus 2)
%inhibition, %: 4.387

compound: Cc1cccc(C)c1NC(=O)C1CCCCN1C (centres unmarked) [Mepivacaine HCl]
system: SARS-CoV-2 Mac1 (Severe acute respiratory syndrome coronavirus 2)
%inhibition, %: 2.617

compound: NCc1ccc(S(N)(=O)=O)cc1 [Mafenide Acetate]
system: SARS-CoV-2 Mac1 (Severe acute respiratory syndrome coronavirus 2)
%inhibition, %: 0

compound: CC(C)(C)NCC(O)c1ccc(O)c(CO)c1 (centres unmarked) [Salbutamol]
system: SARS-CoV-2 Mac1 (Severe acute respiratory syndrome coronavirus 2)
%inhibition, %: 0

compound: CCC(=O)NS(=O)(=O)c1ccc(-c2c(-c3ccccc3)noc2C)cc1 [Parecoxib]
system: SARS-CoV-2 Mac1 (Severe acute respiratory syndrome coronavirus 2)
%inhibition, %: 0

compound: CN(C)CC(c1ccc(O)cc1)C1(O)CCCCC1 (centres unmarked)
system: SARS-CoV-2 Mac1 (Severe acute respiratory syndrome coronavirus 2)
%inhibition, %: 6.836

compound: C[C@@H](O)[C@H]1C(=O)N2C(C(=O)O)=C(S[C@@H]3CN[C@H](CNS(N)(=O)=O)C3)[C@H](C)[C@H]12 [Doripenem Hydrate]
system: SARS-CoV-2 Mac1 (Severe acute respiratory syndrome coronavirus 2)
%inhibition, %: 0

compound: CCCCc1nc(Cl)c(CO)n1Cc1ccc(-c2ccccc2-c2nnn[nH]2)cc1 [Losartan Potassium (DuP 753)]
system: SARS-CoV-2 Mac1 (Severe acute respiratory syndrome coronavirus 2)
%inhibition, %: 0

Please state %inhibition for every compound in the list that follows.
1. Nc1c2c(nc3ccccc13)CCCC2 [Tacrine HCl]
2. CC(=O)O[C@@]12CO[C@@H]1C[C@H](O)[C@@]1(C)C(=O)[C@H](O)C3=C(C)[C@@H](OC(=O)[C@H](O)[C@@H](NC(=O)OC(C)(C)C)c4ccccc4)C[C@@](O)([C@@H](OC(=O)c4ccccc4)[C@H]21)C3(C)C [Docetaxel Trihydrate]
3. CCn1cc(C(=O)O)c(=O)c2cc(F)c(N3CCNCC3)nc21 [Enoxacin Sesquihydrate]
4. COc1ccccc1OCCNCC(O)COc1cccc2[nH]c3ccccc3c12 (centres unmarked) [Carvedilol]
5. O=C(O)c1ccccc1 [Sodium benzoate]
6. N=C(N)NC(=O)c1nc(Cl)c(N)nc1N [Amiloride HCl dihydrate]

a:
1: 0.07061; 2: 6.628; 3: 0; 4: 23.79; 5: 0; 6: 4.635
